- ASSAY_REMARKS: Inhibitory concentration against tyramine oxidase of Arthrobacter spp.; Not determined.
ENDPOINT: pIC50
For clarity, pIC50 is expressed as the negative log10 of concentration in mol/L.

Record Cc1ccc([C@@]2(F)C[C@@H]2N)cc1 , field pIC50: 4.29

====

ENDPOINT: IC50 (µM)
Reply with just the number (in µM).

Record Cc1ccc([C@@]2(F)C[C@H]2N)cc1 (relative stereo) ; system Amine oxidase [flavin-containing] B (Homo sapiens, UniProt P27338); IC50 = 6.7

====

- ASSAY_REMARKS: Inhibition concentration against tyramine oxidase of Arthrobacter spp.; Partially irreversible inhibition
ENDPOINT: IC50
Hey, just the number and the unit after it is fine.

Sample N[C@@H]1C[C@]1(F)c1ccccc1 (relative stereo) ; IC50 observed: 190 µM

Recorded IC50 (compound Cl.NC1CC1(F)c1ccc(Cl)cc1 (stereo in doubt) ): 89 µM

What the record says about N[C@H]1C[C@]1(F)c1ccc(F)cc1 (relative stereo) : IC50 is 75 µM
